Source of measurements: PubChem BioAssay (NCI)

# Test system: A549/ATCC NSCLC
# procedure_text: NCI-60 one-dose screen, 48 h
# study_conditions: 10 µM
Compounds without any hit were thinned out: in the full panel of roughly 83,000, 20% have a hit. Activity calls are given as the source filed them. Rule for the calls: active = growth percent below 10; inactive = the rest.
Please answer using one outcome listed in Y (active), N (inactive)

NC1=CC(=O)C(=O)c2cccnc21; N

Tell me the assay call for COc1cc(OC)c2c(=O)c(O)c(-c3ccccc3)oc2c1 please. N

Tell me the assay call for CC(C)(C)OC(=O)CN1CCc2c(sc3ncnc(N/N=C/c4cccc5ccccc45)c23)C1 please. N

Tell me the assay call for COc1cc(C(=O)/C=C/c2c[nH]c3ccccc23)cc(OC)c1OC please. N

Tell me the assay call for O=C1CC(SC(=S)C2CCCC2=O)C(=O)N1 (stereo not drawn) please. N

Tell me the assay call for CCOC(=O)c1sc2ncnc(Nc3ccc(NC(=O)Nc4ccc(Cl)cc4)cc3)c2c1C please. N

Tell me the assay call for O=C(Nc1ccc(F)cc1)c1cc2ccccc2cc1O please. N

Tell me the assay call for NC(=O)c1cccc(-n2ccc3cc(NC(=O)Nc4ccc(Cl)c(C(F)(F)F)c4)ccc32)n1 please. N

Tell me the assay call for C[C@@H](C[C@H](CCO)c1ccccc1)c1ccc2ccccc2c1 please. Y

Tell me the assay call for CN(C)CCCN1c2ccccc2CCc2ccc(Cl)cc21 please. N

Tell me the assay call for CCOc1ccccc1/C=N/N1CCCCCC1 please. N

Tell me the assay call for COc1ccc(-c2nn(-c3cccc(Cl)c3)cc2/C=C2\NC(=S)N(c3ccc(Cl)cc3)C2=O)cc1 please. N

Tell me the assay call for CCOc1ccccc1/C=N\N=C(\N)N/N=C/c1ccccc1OCC please. N
